molecular target: JAK2 (Homo sapiens, UniProt O60674); construct: 5 μl of catalytic domain recombinant Kinase enzyme+Tyr peptide substrate (Invitrogen, CA); purchased Invitrogen; experiment: Z'-LYTE kinase assay JAK2; type: biochemical
Sequence (O60674 849-1124 limits assumed): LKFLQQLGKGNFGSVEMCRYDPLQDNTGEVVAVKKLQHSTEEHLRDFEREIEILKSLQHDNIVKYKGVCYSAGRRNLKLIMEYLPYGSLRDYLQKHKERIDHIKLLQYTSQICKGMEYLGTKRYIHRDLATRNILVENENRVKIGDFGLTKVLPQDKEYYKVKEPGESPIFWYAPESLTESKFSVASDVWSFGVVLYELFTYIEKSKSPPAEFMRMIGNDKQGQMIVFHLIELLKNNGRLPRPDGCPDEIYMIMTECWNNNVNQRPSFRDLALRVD
pIC50: −log10 of the molar value.
Reported pIC50 values for a set of compounds

// below: answered compounds
{"columns": ["compound-structure-string", "test-system", "pIC50"],
 "data": [
  ["CC(=O)N1CCN(c2ccc(Nc3ccc(C(N)=O)c(NC4CCC4)n3)cc2)CC1", "JAK2 (Homo sapiens, UniProt O60674)", "6.00 to 7.00"],
  ["COc1cc(Nc2cc(NCc3ccccc3)c(C(N)=O)cn2)ccc1C(=O)N(C)C", "JAK2 (Homo sapiens, UniProt O60674)", "6.00 to 7.00"],
  ["NC(=O)c1cnc(Nc2ccc(C3CCOCC3)cc2)cc1NCc1ncccn1", "JAK2 (Homo sapiens, UniProt O60674)", "< 6.00"]
]}

Entry under test: CN(C)C(=O)C1CN(c2ccc(Nc3cc(NCc4ccccc4)c(C(N)=O)cn3)cc2)C1 . Its pIC50 was 6.00 to 7.00

====

target: JAK3 (Homo sapiens, UniProt P52333); construct: 5 μl of catalytic domain recombinant Kinase enzyme+Tyr peptide substrate (Invitrogen, CA); experiment: Z'-LYTE kinase assay JAK3
Sequence (P52333 822-1111 limits assumed): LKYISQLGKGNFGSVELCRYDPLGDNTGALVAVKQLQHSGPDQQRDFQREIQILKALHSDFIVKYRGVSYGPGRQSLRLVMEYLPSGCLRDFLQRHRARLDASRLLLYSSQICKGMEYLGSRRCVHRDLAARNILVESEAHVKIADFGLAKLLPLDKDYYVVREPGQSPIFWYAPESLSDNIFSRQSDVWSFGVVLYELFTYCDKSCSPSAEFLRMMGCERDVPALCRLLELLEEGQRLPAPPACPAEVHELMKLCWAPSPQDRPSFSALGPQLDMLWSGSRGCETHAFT
pIC50: −log10 of the molar value.
Reported pIC50 values for a set of compounds

{"columns": ["compound", "pIC50"],
 "data": [
  ["Cc1cc(Nc2cc(NCc3cccc4cc[nH]c34)c(C(N)=O)cn2)ccc1C(=O)N1CCC1 [Example 463]", "8.00 to 9.00"],
  ["NC(=O)c1cnc(Nc2ccc(C(=O)N3CCC3)cc2)cc1NCC1CCCC1 [Example 48]", "7.00 to 8.00"],
  ["NC(=O)c1cnc(Nc2ccc(C(=O)N3CCCC3)cc2)cc1NCC1CCCC1 [Example 41]", "7.00 to 8.00"],
  ["NC(=O)c1cnc(Nc2cccc(N3CCCCC3)c2)cc1N[C@H](CO)c1ccccc1 [Example 76]", "7.00 to 8.00"],
  ["CC(=O)Nc1cccc(Nc2nc(NCc3ccccc3)c(C(N)=O)cc2F)c1 [Example 19]", "< 6.00"],
  ["CC(=O)N1CCN(c2ccc(Nc3cc(NC4Cc5ccccc5C4)c(C(N)=O)cn3)cc2)CC1 [Example 253]", "6.00 to 7.00"]
]}

Entry under test: C[C@H](Nc1cc(Nc2ccc(C3CCOCC3)cc2)ncc1C(N)=O)C(C)(C)C [Example 167] . Its pIC50 was 6.00 to 7.00

Entry under test: CN(C)CC(C)(C)CNc1cc(Nc2ccc(C3CCOCC3)cc2)ncc1C(N)=O [Example 171] . Its pIC50 was 6.00 to 7.00

====

molecular target: JAK1 (Homo sapiens); construct: 5 μl of catalytic domain recombinant Kinase enzyme+Tyr peptide substrate (Invitrogen, CA); test: Z'-LYTE kinase assay JAK1
Sequence (P23458 875-1153 limits assumed): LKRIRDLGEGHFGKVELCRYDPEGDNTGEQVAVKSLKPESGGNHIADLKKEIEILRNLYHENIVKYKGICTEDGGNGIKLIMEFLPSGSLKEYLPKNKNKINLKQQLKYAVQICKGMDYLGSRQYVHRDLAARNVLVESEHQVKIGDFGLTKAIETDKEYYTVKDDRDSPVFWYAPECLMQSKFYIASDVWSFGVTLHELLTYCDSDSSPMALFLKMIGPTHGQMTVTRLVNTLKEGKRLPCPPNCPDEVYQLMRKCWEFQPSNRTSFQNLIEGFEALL
Reported IC50 values for a set of compounds

// below: answered compounds
{"columns": ["compound", "test-system", "IC50"],
 "data": [
  ["COc1cc(Nc2cc(NCc3ccccc3)c(C(N)=O)cn2)cc(OC)c1OC [Example 280]", "JAK1 (Homo sapiens)", "> 1000 nM"],
  ["NC(=O)c1cnc(Nc2cccc(C(=O)N3CCC3)c2)cc1NCc1cc(F)ccc1F [Example 99]", "JAK1 (Homo sapiens)", "100 to 1000 nM"],
  ["NC(=O)c1cnc(Nc2ccc(C(=O)N3CCCC3)cc2)cc1NCC1CCCC1 [Example 41]", "JAK1 (Homo sapiens)", "100 to 1000 nM"],
  ["NC(=O)c1cnc(Nc2ccc(N3CCOCC3)c(Cl)c2)cc1NCc1ccccc1 [Example 251]", "JAK1 (Homo sapiens)", "> 1000 nM"],
  ["NC(=O)c1cnc(Nc2ccc3ccncc3c2)cc1NCc1ccccc1 [Example 89]", "JAK1 (Homo sapiens)", "> 1000 nM"],
  ["CS(=O)(=O)Nc1ccc(Nc2cc(NCc3ccccc3)c(C(N)=O)cn2)cc1 [Example 389]", "JAK1 (Homo sapiens)", "100 to 1000 nM"]
]}

Entry under test: COc1ccc(Nc2cc(NC[C@H]3CCCN(C(C)=O)C3)c(C(N)=O)cn2)cc1 [Example 54] . Its IC50 was > 1000 nM

Entry under test: COc1ccc(Nc2cc(NC[C@H]3CCCN(C(=O)N4CCCC4)C3)c(C(N)=O)cn2)cc1 [Example 290] . Its IC50 was > 1000 nM

# credit: patent US20150353495A1
